# Tested on: GluN2B
# Procedure details: Western blot of GluN2B protein in cultured fetal cortical cells
# Format: cell-based, mice
# Assay context: relative value, vehicle set to 1; treated for 24 hours; N 3 or more
Parameter: GluN2B expression, Western blot results, Mean
Would you mind answering with just the numeric figure?

Reference set, count: 5
{"Test smiles": "O=C(NO)[C@@H]1CCCN1C(=O)Cc1ccc(F)cc1Cl", "Assay result": 1.311}
{"Test smiles": "O=C(NO)[C@H]1CCCN1C(=O)c1ccccc1", "Assay result": 1.381}
{"Test smiles": "C[C@H]1CCCCN1C(=O)Cc1ccccc1", "Assay result": 1.683}
{"Test smiles": "C[C@H]1CCCCN1C(=O)Cc1ccc(F)cc1Cl", "Assay result": 1.206}
{"Test smiles": "C[C@H]1CC[C@@H](C(=O)O)CN1C(=O)Cc1cccc([N+](=O)[O-])c1", "Assay result": 2.013}

Write GluN2B expression, Western blot results, Mean of `C[C@H]1CC[C@@H](C(=O)NO)CN1C(=O)Cc1ccc(F)cc1Cl` ; system used: GluN2B
1.248

Write GluN2B expression, Western blot results, Mean of `C[C@H]1CC[C@@H](C(=O)O)CN1CCc1ccc(F)cc1Cl` ; system used: GluN2B
1.074

Write GluN2B expression, Western blot results, Mean of `C[C@H]1CC[C@@H](C(=O)O)CN1C(=O)Cc1cccc(N)c1` ; system used: GluN2B
2.146

Write GluN2B expression, Western blot results, Mean of `C[C@H]1CC[C@@H](C(=O)[O-])CN1C(=O)Cc1cccnc1.[Na+]` ; system used: GluN2B
1.811

Write GluN2B expression, Western blot results, Mean of `C[C@H]1CC[C@@H](C(=O)O)CN1C(=O)c1ccccc1` ; system used: GluN2B
1.326

----------
# System: 293T cells
# Procedure details: Cytotoxicity test (CCK-8 cell viability) in 293T cells
# Format: cell-based, human
# Assay context: 100 uM, 24 hours co-incubation, 293T cell line, % of control
Parameter: Cell viability test results (CCK) 100 uM (%<)
Kindly provide the numeric value in %< only, without the unit symbol.

{"Compound": "CCC1CCC(C(=O)O)CN1C(=O)Cc1ccc(F)cc1Cl (centres unmarked) [BnH12094]", "Unit info": "%<", "Cell viability test results (CCK) 100 uM": 70}
{"Compound": "O=C(O)[C@@H]1CCCN(C(=O)Cc2ccc(F)cc2Cl)C1 [BnH12004]", "Unit info": "%<", "Cell viability test results (CCK) 100 uM": 85}
{"Compound": "CCOC(=O)[C@@H]1CC[C@H](C)N(C(=O)Cc2ccc(F)cc2Cl)C1 [BnH12021]", "Unit info": "%<", "Cell viability test results (CCK) 100 uM": 80}

Give the value of Cell viability test results (CCK) 100 uM reported for the following: C[C@H]1CC[C@@H](C(=O)[O-])CN1C(=O)Cc1ccccn1.[Na+] [BnH12039]
90

Give the value of Cell viability test results (CCK) 100 uM reported for the following: C[C@H]1CC[C@@H](C(=O)O)CN1C(=O)c1ccccc1 [BnH12065]
95

----------
# Tested on: 293T cells
# Procedure details: Cytotoxicity test (CCK-8 cell viability) in 293T cells
# Type: cell-based, human
# Assay context: 100 uM, 24 hours co-incubation, 293T cell line, % of control
Parameter: Cell viability test results (CCK) 100 uM (%<)
Kindly provide the numeric value in %< only, without the unit symbol.

Reference set, count: 3
{"Molecule": "C[C@H]1CC[C@@H](C(=O)O)CN1C(=O)CC1CCCCC1", "Unit info": "%<", "Assay result": 95}
{"Molecule": "C[C@H]1CC[C@@H](C(=O)O)CN1C(=O)Cc1ccc(N(C)C)cc1", "Unit info": "%<", "Assay result": 95}
{"Molecule": "CC(C)C1CCC(C(=O)O)CN1C(=O)Cc1ccc(F)cc1Cl (centres unmarked)", "Unit info": "%<", "Assay result": 65}

Give the value of Cell viability test results (CCK) 100 uM reported for the following: `C[C@H]1CC[C@@H](C(=O)O)CN1C(=O)Cc1ccc(Cl)cc1`
80

Give the value of Cell viability test results (CCK) 100 uM reported for the following: `C[C@H]1CC[C@@H](C(=O)O)CN1C(=O)Cc1ccc(Cl)c(Cl)c1`
80

Give the value of Cell viability test results (CCK) 100 uM reported for the following: `O=C(NO)[C@H]1CCCN1C(=O)Cc1ccc(F)cc1Cl`
90

Give the value of Cell viability test results (CCK) 100 uM reported for the following: `O=C(O)[C@@H]1CCCN1C(=O)Cc1ccc(F)cc1Cl`
99

Give the value of Cell viability test results (CCK) 100 uM reported for the following: `O=C(NO)[C@H]1CCCN1C(=O)c1ccccc1`
90

Give the value of Cell viability test results (CCK) 100 uM reported for the following: `C[C@H]1CC[C@@H](C(=O)O)CN1C(=O)Cc1ccc(Br)cc1`
95

Give the value of Cell viability test results (CCK) 100 uM reported for the following: `C[C@H]1CC[C@@H](C(=O)O)CN1C(=O)Cc1cccc(Cl)c1`
99

Give the value of Cell viability test results (CCK) 100 uM reported for the following: `C[C@H]1CCCCN1C(=O)Cc1ccccc1`
95
